Source of measurements: ChEMBL document CHEMBL3745676

- MEASUREMENT_DESCRIPTION: Cytotoxicity against African green monkey Vero cells assessed as cell viability after 4 to 6 days by microscopic analysis
- Format: cell-based
- CONDITION_CONTEXT: chlorocebus sabaeus
// reported MCC per item
METRIC: MCC

| MOLECULE_SMILES | EXPERIMENTAL_VALUE |
| --- | --- |
| CCCCNc1cncc(C(=O)NCc2ccccc2)n1 | 100 µM |
| CCCCCCCNc1cncc(C(=O)NCc2ccccc2)n1 | > 100 µM |
| CCCCCNc1nccnc1C(=O)NCc1ccccc1 | > 100 µM |
| CCCCNc1nccnc1C(=O)NCc1ccccc1 | > 100 µM |
| CCCCCCCCNc1nccnc1C(=O)NCc1ccccc1 | > 100 µM |
| CCCCCCCCNc1cnc(C(=O)NCc2ccccc2)cn1 | 20 µM |
| O=C(NCc1ccccc1)c1nccnc1NCc1ccccc1 | > 100 µM |
| CCCCNc1cnc(C(=O)NCc2ccccc2)cn1 | > 100 µM |
| CCCCCNc1cncc(C(=O)NCc2ccccc2)n1 | > 100 µM |

====

- MEASUREMENT_DESCRIPTION: Cytotoxicity against MDCK cells assessed as cell viability after 4 to 6 days by microscopic analysis
- Assay type: cell-based, Canis lupus familiaris
- CONDITION_CONTEXT: dog
METRIC: MCC (µM)

| MOLECULE_SMILES | UNIT_INFO | QUALIFYING_SIGN | EXPERIMENTAL_VALUE |
| --- | --- | --- | --- |
| CCCCNc1cncc(C(=O)NCc2ccccc2)n1 | µM | = | 100 |
| CCCCCCCNc1cncc(C(=O)NCc2ccccc2)n1 | µM | = | 4 |
| CCCCCCNc1nccnc1C(=O)NCc1ccccc1 | µM | = | 100 |
| CCCCCCCNc1cnc(C(=O)NCc2ccccc2)cn1 | µM | > | 100 |
| CCCCCCCNc1nccnc1C(=O)NCc1ccccc1 | µM | = | 100 |
| CCCCCNc1cncc(C(=O)NCc2ccccc2)n1 | µM | = | 20 |
| CCCCNc1cnc(C(=O)NCc2ccccc2)cn1 | µM | = | 100 |
| O=C(NCc1ccccc1)c1nccnc1NCc1ccccc1 | µM | = | 20 |
| CCCCCCCCNc1cncc(C(=O)NCc2ccccc2)n1 | µM | = | 4 |

====

- MEASUREMENT_DESCRIPTION: Cytotoxicity against MDCK cells assessed as cell viability after 4 to 6 days by formazan-based MTS assay
- Set-up: species or system Canis lupus familiaris
- CONDITION_CONTEXT: dog
Entries and their CC50

| MOLECULE_SMILES | QUALIFYING_SIGN | CC50 [µM] |
| --- | --- | --- |
| CCCCNc1nccnc1C(=O)NCc1ccccc1 | > | 100 |
| CCCCCCNc1cncc(C(=O)NCc2ccccc2)n1 | = | 9.5 |
| CCCCNc1cnc(C(=O)NCc2ccccc2)cn1 | = | 57 |
| CCCCNc1cncc(C(=O)NCc2ccccc2)n1 | = | 66 |
| CCCCCCCCNc1cnc(C(=O)NCc2ccccc2)cn1 | = | 62 |
| CCCCCNc1cncc(C(=O)NCc2ccccc2)n1 | = | 33 |
| O=C(NCc1ccccc1)c1nccnc1NCc1ccccc1 | > | 100 |
| CCCCCCCNc1cnc(C(=O)NCc2ccccc2)cn1 | > | 100 |
| CCCCCNc1nccnc1C(=O)NCc1ccccc1 | > | 100 |
| CCCCCCCCNc1cncc(C(=O)NCc2ccccc2)n1 | = | 1.3 |
| CCCCCCNc1nccnc1C(=O)NCc1ccccc1 | > | 100 |
